Target: human GABAA α1β3γ2 receptor (Homo sapiens (Human), UniProt P14867+P18507)
Experiment: Radioligand binding assay for γ2-containing GABAA subtypes, [3H]Flumazenil competition (α1β3γ2)
Form field: Ki (one value per entry).
Provide the reading as a plain figure in µM.

Worked examples, 4 compounds total:
| compound | test_system | value_observed |
| --- | --- | --- |
| C[C@@H]1N=C(c2ncccc2F)c2c(ccc(C(F)(F)F)c2Cl)-n2nc(C(=O)N3CCC3)nc21 [Example 85] | human GABAA α1β3γ2 receptor (Homo sapiens (Human), UniProt P14867+P18507) | 8.86 |
| C[C@@H]1N=C(c2c(F)cccc2F)c2c(ccc(C(F)(F)F)c2Cl)-n2nc(NC(=O)N3CC(F)C3)nc21 [Example 128] | human GABAA α1β3γ2 receptor (Homo sapiens (Human), UniProt P14867+P18507) | 3.88 |
| Cc1nc2n(n1)-c1ccc(Cl)c(Cl)c1C(c1ncccc1F)=N[C@H]2C [Example 84] | human GABAA α1β3γ2 receptor (Homo sapiens (Human), UniProt P14867+P18507) | 0.977 |
| O=C(c1nc2n(n1)-c1ccc(Cl)c(Cl)c1C(c1c(F)cccc1F)=NC2)N1CCC1 [Example 8] | human GABAA α1β3γ2 receptor (Homo sapiens (Human), UniProt P14867+P18507) | 0.368 |

// next entry
Notebook: pull reported Ki for human GABAA α1β3γ2 receptor (Homo sapiens (Human), UniProt P14867+P18507), entry Cc1cn2c(n1)[C@H](C)N=C(c1ncccc1F)c1c-2ccc(C(F)(F)F)c1Cl [Example 139] 3.06
